Entry source: ChEMBL document CHEMBL1961873

# system.name: Proto-oncogene tyrosine-protein kinase receptor Ret (Homo sapiens) (UniProt P07949);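 also: each listed value is an averaged inhibition figure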
# Sequence (P07949 whole entry): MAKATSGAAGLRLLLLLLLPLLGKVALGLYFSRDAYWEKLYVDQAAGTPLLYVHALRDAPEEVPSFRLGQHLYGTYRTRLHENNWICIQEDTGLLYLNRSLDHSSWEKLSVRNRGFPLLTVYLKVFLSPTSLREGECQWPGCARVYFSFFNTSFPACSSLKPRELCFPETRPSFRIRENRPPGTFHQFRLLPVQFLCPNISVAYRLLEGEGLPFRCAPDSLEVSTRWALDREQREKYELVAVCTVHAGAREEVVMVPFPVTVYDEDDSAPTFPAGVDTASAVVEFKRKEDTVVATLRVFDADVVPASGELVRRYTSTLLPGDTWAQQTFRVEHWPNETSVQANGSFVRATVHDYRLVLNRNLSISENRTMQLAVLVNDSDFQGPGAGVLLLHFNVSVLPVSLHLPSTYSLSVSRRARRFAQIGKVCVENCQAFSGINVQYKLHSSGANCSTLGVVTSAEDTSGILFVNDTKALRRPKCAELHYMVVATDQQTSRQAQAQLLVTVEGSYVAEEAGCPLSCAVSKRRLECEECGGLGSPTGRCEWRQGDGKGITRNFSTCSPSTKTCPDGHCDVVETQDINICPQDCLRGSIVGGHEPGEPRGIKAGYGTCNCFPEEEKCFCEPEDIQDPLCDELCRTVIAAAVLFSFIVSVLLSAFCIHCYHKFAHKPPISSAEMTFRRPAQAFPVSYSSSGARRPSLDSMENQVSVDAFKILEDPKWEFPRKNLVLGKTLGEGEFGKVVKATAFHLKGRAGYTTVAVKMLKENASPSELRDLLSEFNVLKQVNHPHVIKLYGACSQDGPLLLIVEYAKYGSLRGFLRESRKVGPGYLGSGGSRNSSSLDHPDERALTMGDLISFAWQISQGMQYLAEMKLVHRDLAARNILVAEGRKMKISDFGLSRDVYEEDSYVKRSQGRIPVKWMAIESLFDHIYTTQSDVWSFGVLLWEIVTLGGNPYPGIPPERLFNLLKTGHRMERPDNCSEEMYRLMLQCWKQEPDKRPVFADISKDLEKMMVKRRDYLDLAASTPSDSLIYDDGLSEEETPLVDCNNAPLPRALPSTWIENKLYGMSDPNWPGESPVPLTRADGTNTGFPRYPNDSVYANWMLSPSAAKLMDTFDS
# condition.description: at 1 µM
Criterion: inhibition meeting or surpassing 20%. Met: met. Not met: not met.

Q: Textbook exercise: given the entry `NS(=O)(=O)c1cccc(-c2cc3ccncc3cc2OCc2ccccc2)c1` , state whether its inhibition is greater than or equal to 20%.
A: not met

Q: Textbook exercise: given the entry `CCn1c(-c2nonc2N)nc2ccc(F)cc21` , state whether its inhibition is greater than or equal to 20%.
A: not met

Q: Textbook exercise: given the entry `CN(C)C(=O)O[C@@H]1CN[C@@H](C#Cc2cc3ncnc(Nc4ccc(OCc5cccc(F)c5)c(Cl)c4)c3s2)C1` , state whether its inhibition is greater than or equal to 20%.
A: not met

Q: Textbook exercise: given the entry `Nc1nccc(-c2c(-c3ccc(F)cc3)nn3cc(C(F)(F)F)ccc23)n1` , state whether its inhibition is greater than or equal to 20%.
A: not met

Q: Textbook exercise: given the entry `COc1cc(Nc2nccc(-c3cnn4ncccc34)n2)cc(OC)c1` , state whether its inhibition is greater than or equal to 20%.
A: met

Q: Textbook exercise: given the entry `NS(=O)(=O)c1cccc(Nc2cc(-c3ccc(F)cc3)n[nH]2)c1` , state whether its inhibition is greater than or equal to 20%.
A: not met

Q: Textbook exercise: given the entry `COc1cc2ncnc(Nc3ccc(C)c(O)c3)c2cc1OC` , state whether its inhibition is greater than or equal to 20%.
A: met

Q: Textbook exercise: given the entry `CS(=O)(=O)Nc1cccc(-c2ccc3c(NC(=O)C4CC4)n[nH]c3c2)c1` , state whether its inhibition is greater than or equal to 20%.
A: not met

Q: Textbook exercise: given the entry `O=C1Nc2ccccc2/C1=C/Nc1ccc2[nH]c(=O)[nH]c2c1` , state whether its inhibition is greater than or equal to 20%.
A: met

Q: Textbook exercise: given the entry `COC(=O)c1cncc(/C=C/c2c(C)cc(O)cc2C)c1` , state whether its inhibition is greater than or equal to 20%.
A: not met

Q: Textbook exercise: given the entry `Cc1ccc(O)cc1Nc1ccnc2ccc(S(C)(=O)=O)cc12` , state whether its inhibition is greater than or equal to 20%.
A: met

Q: Textbook exercise: given the entry `Cc1ccc2c(c1)/C(=N/Nc1ccc(S(N)(=O)=O)cc1)C(=O)N2` , state whether its inhibition is greater than or equal to 20%.
A: not met

Q: Textbook exercise: given the entry `CCOc1nccc2c1nc(-c1nonc1N)n2CC` , state whether its inhibition is greater than or equal to 20%.
A: not met

Q: Textbook exercise: given the entry `CC(C)c1ccc(Nc2nccc(-c3cnn4ncccc34)n2)cc1` , state whether its inhibition is greater than or equal to 20%.
A: not met
